tested on: VDR:RXRa (NR concentration 270 nM, RXRa partner concentration 90 nM); assay: PBM binding z-score (relative to random genomic background probes); higher = stronger binding; sequences stand for … in GC…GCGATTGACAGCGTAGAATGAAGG
Classification field: enter Satisfied for PBM binding z-score values not below 2, Not satisfied for values below it.

- polymerSequence: "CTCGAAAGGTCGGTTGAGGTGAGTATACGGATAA"
  testTarget: "VDR:RXRa (NR concentration 270 nM, RXRa partner concentration 90 nM)"
  answerLabel: "Satisfied"
- polymerSequence: "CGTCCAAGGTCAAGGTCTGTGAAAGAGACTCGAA"
  testTarget: "VDR:RXRa (NR concentration 270 nM, RXRa partner concentration 90 nM)"
  answerLabel: "Satisfied"
- polymerSequence: "TGAATGAGGTTAAAGATCAGGGATCGTGGCGTCG"
  testTarget: "VDR:RXRa (NR concentration 270 nM, RXRa partner concentration 90 nM)"
  answerLabel: "Not satisfied"
- polymerSequence: "ATCCCTAGGTAACCAAGTTCAGTGAATGCCGAAC"
  testTarget: "VDR:RXRa (NR concentration 270 nM, RXRa partner concentration 90 nM)"
  answerLabel: "Satisfied"
- polymerSequence: "CCCACTGGGGCAAGGTTACCATAACGCACAGCCA"
  testTarget: "VDR:RXRa (NR concentration 270 nM, RXRa partner concentration 90 nM)"
  answerLabel: "Not satisfied"
- polymerSequence: "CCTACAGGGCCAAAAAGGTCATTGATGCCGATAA"
  testTarget: "VDR:RXRa (NR concentration 270 nM, RXRa partner concentration 90 nM)"
  answerLabel: "Satisfied"
- polymerSequence: "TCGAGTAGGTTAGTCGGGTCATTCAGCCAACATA"
  testTarget: "VDR:RXRa (NR concentration 270 nM, RXRa partner concentration 90 nM)"
  answerLabel: "Satisfied"
- polymerSequence: "TCATATAGCTAATACAGGTGAAAGTCGGCATCTA"
  testTarget: "VDR:RXRa (NR concentration 270 nM, RXRa partner concentration 90 nM)"
  answerLabel: "Not satisfied"
- polymerSequence: "ATCTCTAGGTAACAAGTTCGGTGAAAGAGAGGAC"
  testTarget: "VDR:RXRa (NR concentration 270 nM, RXRa partner concentration 90 nM)"
  answerLabel: "Not satisfied"
- polymerSequence: "CCTCGGAAGACAGAAGGTCAGAGCTGTCCGCTTT"
  testTarget: "VDR:RXRa (NR concentration 270 nM, RXRa partner concentration 90 nM)"
  answerLabel: "Not satisfied"
- polymerSequence: "CAAACTAGGTCACGAAAGGTCACAGTCGAATGAC"
  testTarget: "VDR:RXRa (NR concentration 270 nM, RXRa partner concentration 90 nM)"
  answerLabel: "Satisfied"

Numbers sourced from the supplement of paper PMC6555819.
